Target: T1, cynomolgus monkey IL-33 expressed with a C-terminal hexahistidine tag (cynomolgus monkey)
T1 construct: also called MfIL-33-6His; Mf-IL-33-6His
T1 chain: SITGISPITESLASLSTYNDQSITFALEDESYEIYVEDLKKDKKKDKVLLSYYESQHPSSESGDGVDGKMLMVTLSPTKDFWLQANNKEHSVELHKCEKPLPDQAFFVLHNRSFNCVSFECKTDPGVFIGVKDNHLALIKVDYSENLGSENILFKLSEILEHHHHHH
Assay: BLI; mAb-1 on captured MfIL-33-6His
The following binders are listed with their measured mAb-1 Binding (nm) values.
Kindly provide the numeric value in nm only, without the unit symbol.

Some solved entries appear below for comparison.
binder: H4H9672P (antibody, human IgG4, V domains shown, Human IgG4 Fc (H4H)) VH: EVQLVESGGGLVQPGGSLRLSCAASGFTLRSYVMYWVRQGPGKGLEGVSGISGSSGGTYYTDSVKGRFTISRDNSKNTLFLQMNSLRAEDTAVYFCARSVYSTTWYGGFQHWGQGTLVTVSS VL: DIQMTQSPSSVSVSVGDRVTITCRASQVISSWLAWYQLKPGKAPKLLIYAASSLQSGVPSRFSGSGSGTDFTLTISGLQPEDFAVYYCQQTNSFPLTFGGGTKVEIK
value type: mAb-1 Binding (nm)
result unit: nm
readout value: 0.56

binder: H1M9559N (antibody, mouse IgG1, V domains shown, Human variable domains, mouse IgG1 Fc (H1M)) VH: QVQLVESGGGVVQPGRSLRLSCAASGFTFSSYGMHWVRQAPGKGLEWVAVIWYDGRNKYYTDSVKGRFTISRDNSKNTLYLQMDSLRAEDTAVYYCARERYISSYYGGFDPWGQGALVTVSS VL: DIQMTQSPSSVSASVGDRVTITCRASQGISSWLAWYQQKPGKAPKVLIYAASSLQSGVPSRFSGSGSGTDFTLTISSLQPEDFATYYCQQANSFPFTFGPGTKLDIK
value type: mAb-1 Binding (nm)
result unit: nm
readout value: 0.5

binder: H4H9664P (antibody, human IgG4, V domains shown, Human IgG4 Fc (H4H)) VH: QVQLVESGGGVVQPGRSLRLSCAASGFTFSSYGLHWVRQSPGKGLEWVALISYDGSNKYYADSVKGRFTISRDNSKNTLYLQMNSLRPEDTAGYFCAKSLYTTSWYGGFDYWGQGTLVTVSS VL: DIQMTQSPSSVSASVGDRVTITCRASQGIRSWLAWYQQKPGKAPNLLIYAASSLQSGVPSRFSGSGSGTDFTLTISSLQPEDFATYYCQQANSFPPTFGPGTKVDIK
value type: mAb-1 Binding (nm)
result unit: nm
readout value: 0.61

Proceeding to the next binder to report its mAb-1 Binding (nm).
Could you tell me which mAb-1 Binding (nm) is on file for H4H9666P (antibody, human IgG4, V domains shown, Human IgG4 Fc (H4H)) VH: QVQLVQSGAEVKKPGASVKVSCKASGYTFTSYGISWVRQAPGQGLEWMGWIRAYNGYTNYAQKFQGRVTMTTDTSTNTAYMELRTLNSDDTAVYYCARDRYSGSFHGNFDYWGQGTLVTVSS VL: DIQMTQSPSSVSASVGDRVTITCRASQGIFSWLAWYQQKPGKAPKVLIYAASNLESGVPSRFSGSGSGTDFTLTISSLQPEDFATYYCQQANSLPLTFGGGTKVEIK ? 0.57
